B1: Far upstream element-binding protein 1, residues 98 to 169; numbered along this chain, Q96AE4 (parent)
chain: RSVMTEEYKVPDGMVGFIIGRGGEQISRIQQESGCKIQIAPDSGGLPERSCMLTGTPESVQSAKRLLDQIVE

Variants of: B1
Assay name: abundance fitness (aPCA) (normalised: wild type 0, dead -1); higher = more abundant; growth selection in yeast, the domain comes from the species named
Test conditions: Homo sapiens
Cut-off -0.06 on abundance fitness, inclusive. At or above means 1 (yes); below means 0 (no).

Say whether RSVMTEEYKVPDGMVGFIIGRGGEQISRIQQESGCKIQIAPDSGGLPEVSCMLTGTPESVQSAKRLLDQIVE [R49V] shows abundance fitness of -0.06 or more.
0 (no)

Say whether RSVMTEEYKVPDGMVGFIIGRGGEQISRIQQESGCKIQIAPDSGGLPELSCMLTGTPESVQSAKRLLDQIVE [R49L] shows abundance fitness of -0.06 or more.
0 (no)

Say whether RSVMTEEYKVPDGMVGFIIGRGGEQISWIQQESGCKIQIAPDSGGLPERSCMLTGTPESVQSAKRLLDQIVE [R28W] shows abundance fitness of -0.06 or more.
0 (no)

Say whether RSVMTEEYKVPDGMVGFIGGRGGEQISRIQQESGCKIQIAPDSGGLPERSCMLTGTPESVQSAKRLLDQIVE [I19G] shows abundance fitness of -0.06 or more.
0 (no)

Say whether RSVMTEEYKVPDGMVGFIIGRGGEQISRIQQESGCKIQIAPDSGGLPERSSMLTGTPESVQSAKRLLDQIVE [C51S] shows abundance fitness of -0.06 or more.
0 (no)

Say whether RSVMTEEYKQPDGMVGFIIGRGGEQISRIQQESGCKIQIAPDSGGLPERSCMLTGTPESVQSAKRLLDQIVE [V10Q] shows abundance fitness of -0.06 or more.
0 (no)

Say whether RSVMTEEYKVPDGMVGFIIGRGGEQISRIQQENGCKIQIAPDSGGLPERSCMLTGTPESVQSAKRLLDQIVE [S33N] shows abundance fitness of -0.06 or more.
0 (no)

Say whether RSVMTEEYKVPDGMVGFIIGRGGEQISRIQQESGCKIQIAPDSGGLPERSCMLTGTPGSVQSAKRLLDQIVE [E58G] shows abundance fitness of -0.06 or more.
1 (yes)

Say whether RSWMTEEYKVPDGMVGFIIGRGGEQISRIQQESGCKIQIAPDSGGLPERSCMLTGTPESVQSAKRLLDQIVE [V3W] shows abundance fitness of -0.06 or more.
0 (no)

Say whether RSVMTEEYKVPDGMVGFIIGRGGEQISRIQQESGCKFQIAPDSGGLPERSCMLTGTPESVQSAKRLLDQIVE [I37F] shows abundance fitness of -0.06 or more.
0 (no)

Say whether RSVMTEEYKVPDGMVGFIIGRGGEQISRIQQESGCKIQIAPDSGGLPERSCMLTGTPESVQSAKRLRDQIVE [L67R] shows abundance fitness of -0.06 or more.
0 (no)

Say whether RSVMTEEYKVPDGMVGFIIGRGGEQISRIQQESGCKIQIAPDSGGLPERFCMLTGTPESVQSAKRLLDQIVE [S50F] shows abundance fitness of -0.06 or more.
0 (no)

Say whether RSVMTEEYKYPDGMVGFIIGRGGEQISRIQQESGCKIQIAPDSGGLPERSCMLTGTPESVQSAKRLLDQIVE [V10Y] shows abundance fitness of -0.06 or more.
0 (no)

Say whether RSVMTEEYKVPDGMVVFIIGRGGEQISRIQQESGCKIQIAPDSGGLPERSCMLTGTPESVQSAKRLLDQIVE [G16V] shows abundance fitness of -0.06 or more.
0 (no)

Say whether RSVMWEEYKVPDGMVGFIIGRGGEQISRIQQESGCKIQIAPDSGGLPERSCMLTGTPESVQSAKRLLDQIVE [T5W] shows abundance fitness of -0.06 or more.
0 (no)

Say whether RSVMTEEYKVPDGMVGFIIGRGGEQISRPQQESGCKIQIAPDSGGLPERSCMLTGTPESVQSAKRLLDQIVE [I29P] shows abundance fitness of -0.06 or more.
0 (no)

Say whether RSVMTEEYKVPDGMVQFIIGRGGEQISRIQQESGCKIQIAPDSGGLPERSCMLTGTPESVQSAKRLLDQIVE [G16Q] shows abundance fitness of -0.06 or more.
1 (yes)

Say whether RSVMTEEYKVPDGMVGFIIGRGGEQIIRIQQESGCKIQIAPDSGGLPERSCMLTGTPESVQSAKRLLDQIVE [S27I] shows abundance fitness of -0.06 or more.
1 (yes)

Say whether RSVMTEEYKVPDGMVGMIIGRGGEQISRIQQESGCKIQIAPDSGGLPERSCMLTGTPESVQSAKRLLDQIVE [F17M] shows abundance fitness of -0.06 or more.
1 (yes)

Say whether RSVMTEEYKVPDGMVGFIIGRGGEQISRIQQESGCKIQIAPDSGLLPERSCMLTGTPESVQSAKRLLDQIVE [G45L] shows abundance fitness of -0.06 or more.
0 (no)

Say whether RSVMTEEYKVPDGMVGFIIGRQGEQISRIQQESGCKIQIAPDSGGLPERSCMLTGTPESVQSAKRLLDQIVE [G22Q] shows abundance fitness of -0.06 or more.
1 (yes)

Say whether RSVMTEEYKVPDGMVGFEIGRGGEQISRIQQESGCKIQIAPDSGGLPERSCMLTGTPESVQSAKRLLDQIVE [I18E] shows abundance fitness of -0.06 or more.
0 (no)

Say whether RSVMTEEYKVPDGMVGFIIGRGGEQISRIQQESGCKIQIAPDSGELPERSCMLTGTPESVQSAKRLLDQIVE [G45E] shows abundance fitness of -0.06 or more.
1 (yes)

Say whether RSVMTEEYKVPDGMVGFIIGRGGEQISRIQQNSGCKIQIAPDSGGLPERSCMLTGTPESVQSAKRLLDQIVE [E32N] shows abundance fitness of -0.06 or more.
0 (no)

Say whether RSVMTEEYKVPDGMVGFIIGRGGKQISRIQQESGCKIQIAPDSGGLPERSCMLTGTPESVQSAKRLLDQIVE [E24K] shows abundance fitness of -0.06 or more.
1 (yes)

Say whether RSVMTEEYKVPDGMVGFIIGRGGEQISRIQQESGCKIQIAPDSGGLPERSCMLTGTPESVQSAKNLLDQIVE [R65N] shows abundance fitness of -0.06 or more.
1 (yes)

Say whether RSVMTEEYKVPDGMVGFIIGRGGEQISRIQQESGCKIQIAPDSGGLPERSCMLTGTPESVQSAKRVLDQIVE [L66V] shows abundance fitness of -0.06 or more.
0 (no)

Say whether RSVMTEEYKVPDGMVGFIIGRGGEQISRIQQESGCKIQIAPDSGGWPERSCMLTGTPESVQSAKRLLDQIVE [L46W] shows abundance fitness of -0.06 or more.
0 (no)

Say whether RSVMTEEYKVPDGMVGFCIGRGGEQISRIQQESGCKIQIAPDSGGLPERSCMLTGTPESVQSAKRLLDQIVE [I18C] shows abundance fitness of -0.06 or more.
0 (no)

Say whether RSVMTEEYKVPDGMMGFIIGRGGEQISRIQQESGCKIQIAPDSGGLPERSCMLTGTPESVQSAKRLLDQIVE [V15M] shows abundance fitness of -0.06 or more.
1 (yes)

Say whether RSVMTEEYKVPDGMVGFIIGRGGEQISRIQQESGCKIQIAPDSGGLPERSCMLTGTPESVASAKRLLDQIVE [Q61A] shows abundance fitness of -0.06 or more.
1 (yes)

Say whether RSVMTEEYKVPDGMVGFIIGRGGEQISRIQQESGCKIQIAPDSGGLPERSCMLTGTPESVQSAKRLLDQIQE [V71Q] shows abundance fitness of -0.06 or more.
1 (yes)

Say whether RSVMTEEYKVPDGMVGFIIGRGGEQISRIQQESGCKIQIAPDSGGLPERSCMLTGTPASVQSAKRLLDQIVE [E58A] shows abundance fitness of -0.06 or more.
1 (yes)

Say whether RSVMTEEYKVPDGMVGFIIGRGGEQISRIQQEPGCKIQIAPDSGGLPERSCMLTGTPESVQSAKRLLDQIVE [S33P] shows abundance fitness of -0.06 or more.
0 (no)

Say whether RSVMTEEYKVPDGMVGFIIARGGEQISRIQQESGCKIQIAPDSGGLPERSCMLTGTPESVQSAKRLLDQIVE [G20A] shows abundance fitness of -0.06 or more.
0 (no)

Say whether RSVMTEEYKVPDGMVGFIIGRGGEQISRIQQESGCKIQIAPDSGGLPERSCMLTGTPESVQSAKCLLDQIVE [R65C] shows abundance fitness of -0.06 or more.
1 (yes)

Say whether RSVMTEEYKVPDGMVGFIIGRGGEQISRIQQESGWKIQIAPDSGGLPERSCMLTGTPESVQSAKRLLDQIVE [C35W] shows abundance fitness of -0.06 or more.
0 (no)

Say whether RSVMYEEYKVPDGMVGFIIGRGGEQISRIQQESGCKIQIAPDSGGLPERSCMLTGTPESVQSAKRLLDQIVE [T5Y] shows abundance fitness of -0.06 or more.
0 (no)

Say whether RSVMTEEYKVPDGMVGFIIGRGGEQISRIQQESGCKIQIAPDSGGLPERSCMLTGTPESVQSAKRLLDEIVE [Q69E] shows abundance fitness of -0.06 or more.
1 (yes)

Say whether RSVMTEEYKVPDGMVGFIMGRGGEQISRIQQESGCKIQIAPDSGGLPERSCMLTGTPESVQSAKRLLDQIVE [I19M] shows abundance fitness of -0.06 or more.
0 (no)

Say whether RSVMTEEYPVPDGMVGFIIGRGGEQISRIQQESGCKIQIAPDSGGLPERSCMLTGTPESVQSAKRLLDQIVE [K9P] shows abundance fitness of -0.06 or more.
0 (no)

Say whether RSVMTEEYKVPDGMVGFIIGRGGEQISRIQQESGCKIQIAPDSGGLPERSCMLTCTPESVQSAKRLLDQIVE [G55C] shows abundance fitness of -0.06 or more.
0 (no)

Say whether RSVMTEEYKVPDGMVGFIIGRGNEQISRIQQESGCKIQIAPDSGGLPERSCMLTGTPESVQSAKRLLDQIVE [G23N] shows abundance fitness of -0.06 or more.
1 (yes)
